- Tested system: human V1a receptor (Homo sapiens, UniProt P37288)
- Construct: expressed in transfected cells; host or cells: CHO K1 (ATCC), also stably transfected with a modified aequorin
- Sequence (P37288 whole entry): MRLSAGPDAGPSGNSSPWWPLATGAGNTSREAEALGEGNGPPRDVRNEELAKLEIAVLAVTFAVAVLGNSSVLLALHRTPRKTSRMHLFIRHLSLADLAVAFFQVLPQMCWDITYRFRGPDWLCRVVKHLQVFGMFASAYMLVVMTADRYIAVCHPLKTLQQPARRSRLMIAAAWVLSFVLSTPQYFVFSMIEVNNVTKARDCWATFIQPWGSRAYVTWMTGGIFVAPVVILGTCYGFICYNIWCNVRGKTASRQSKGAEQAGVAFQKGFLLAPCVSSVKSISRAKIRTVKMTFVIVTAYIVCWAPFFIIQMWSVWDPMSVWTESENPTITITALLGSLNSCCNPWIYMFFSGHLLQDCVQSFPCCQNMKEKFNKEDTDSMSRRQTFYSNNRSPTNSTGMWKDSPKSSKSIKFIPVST
- Assay: Cellular in vitro assay for determining vasopressin receptor activity, V1a receptor cell line (CHO, aequorin luminescence)
- Assay type: cell-based
- Condition summary: selectivity ratio IC50 hV2 / IC50 hV1a
- Procedure: B-1. Cellular In Vitro Assay for Determining Vasopressin Receptor Activity The identification of agonists and antagonists of the V1a and V2 vasopressin receptors from humans, rats and dogs as well as the quantification of the activity of the compounds of the invention is carried out using recombinant cell lines. […] The bioluminescence of the cell lines is detected using a suitable luminometer [Milligan G, Marshall F, Rees S, Trends in Pharmacological Sciences 17, 235-237 (1996)]. […]
Metric: ratio IC50 hV2/hV1a

>>> print(df.to_string())
                                   compound  experimental_result
0  CC(C(=O)Nc1ncccc1-n1cnc(Cn2nc(-c3ccc(Cl)cc3)n(C[C@H](O)C(F)(F)F)c2=O)n1)n1cncn1 (stereo partly shown)                 50.0

a. O=C(Nc1cccnc1)c1ccccc1-n1cnc(Cn2nc(-c3ccc(Cl)cc3)n(C[C@H](O)C(F)(F)F)c2=O)n1
b. O=C(Nc1ccccc1)c1ccccc1-n1cnc(Cn2nc(-c3ccc(Cl)cc3)n(C[C@H](O)C(F)(F)F)c2=O)n1
c. O=C1CCC(NC(=O)c2ccccc2-n2cnc(Cn3nc(-c4ccc(Cl)cc4)n(CC(O)C(F)(F)F)c3=O)n2)CN1 (single isomer, unassigned) [Example 192]
Query :: Ranking field: ratio IC50 hV2/hV1a; order: falling. Order the labels as requested and give them as your answer.
Result :: c, a, b
(c: 98.7, a: 54.2, b: 20.1)

###

- Tested system: human V2 receptor (Homo sapiens, UniProt P30518)
- Construct: expressed in transfected cells; host or cells: CHO K1 (ATCC) expressing firefly luciferase under a CRE-responsive promoter
- Sequence (P30518 whole entry): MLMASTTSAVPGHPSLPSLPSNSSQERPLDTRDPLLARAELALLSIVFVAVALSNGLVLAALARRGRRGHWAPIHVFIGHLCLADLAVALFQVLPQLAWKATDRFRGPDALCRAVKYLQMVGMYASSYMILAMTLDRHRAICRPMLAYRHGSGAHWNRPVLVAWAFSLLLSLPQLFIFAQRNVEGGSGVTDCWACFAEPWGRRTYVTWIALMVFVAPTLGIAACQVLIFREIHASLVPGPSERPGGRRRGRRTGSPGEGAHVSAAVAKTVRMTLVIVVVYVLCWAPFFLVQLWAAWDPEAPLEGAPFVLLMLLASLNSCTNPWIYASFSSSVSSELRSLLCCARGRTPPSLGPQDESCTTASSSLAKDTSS
- Assay: Cellular in vitro assay for determining vasopressin receptor activity, V2 receptor cell line (CHO, CRE-luciferase)
- Type: cell-based
- Condition summary: CHO cell line transfected with human V2 receptor; [Arg8]-vasopressin at EC50 concentration; read-out: IC50 hV2
Metric: IC50 (µM)

P. O=C(NC1CC1)c1ncccc1-n1cnc(Cn2nc(-c3ccc(Cl)cc3)n(C[C@H](O)C(F)(F)F)c2=O)n1
Q. CC1(NC(=O)c2ccncc2-n2cnc(Cn3nc(-c4ccc(Cl)cc4)n(C[C@H](O)C(F)(F)F)c3=O)n2)CC1
Query :: Select the item whose IC50 value is smaller, choosing between P and Q . Respond with the label that goes with your answer.
Result :: Q
(Q: 0.44 µM, P: 1.1 µM)

A. CC1(NC(=O)c2cccc(Cl)c2-n2cnc(Cn3nc(-c4ccc(Cl)cc4)n(C[C@@H](O)C(F)(F)F)c3=O)n2)CC1
B. O=C(NCC(F)(F)F)c1ncccc1-n1cnc(Cn2nc(-c3ccc(Cl)cc3)n(C[C@H](O)C(F)(F)F)c2=O)n1
C. NC(=O)[C@@H]1CC(F)(F)CN1C(=O)c1ncccc1-n1cnc(Cn2nc(-c3ccc(Cl)cc3)n(C[C@@H](O)C(F)(F)F)c2=O)n1
Query :: Sequence the entries by IC50, beginning with the highest number. The response must list the labels following the requested ordering.
Result :: C, A, B
(C: 22 µM, A: 10.1 µM, B: 1.29 µM)

P. O=C1CN(c2nc(Cn3nc(-c4ccc(Cl)cc4)n(C[C@H](O)C(F)(F)F)c3=O)nn2-c2cccnc2C(=O)N[C@H]2C[C@@H]2F)CCN1 (racemic)
Q. O=C(NC1CC(F)(F)C1)c1cccc(Cl)c1-n1cnc(Cn2nc(-c3ccc(Cl)cc3)n(C[C@@H](O)C(F)(F)F)c2=O)n1
R. O=C(NCC(F)(F)F)c1ccncc1-n1nc(Cn2nc(-c3ccc(Cl)cc3)n(C[C@H](O)C(F)(F)F)c2=O)nc1C(=O)N1CCS(=O)(=O)CC1
Query :: List by increasing IC50. # the answer lists labels in the order requested
Result :: R, Q, P
(R: 0.48 µM, Q: 3.15 µM, P: 32 µM)

A. O=C(NCC(F)(F)F)c1cccnc1-n1nc(Cn2nc(-c3ccc(Cl)cc3)n(C[C@H](O)C(F)(F)F)c2=O)nc1C(=O)N1CCS(=O)(=O)CC1
B. O=C(c1cccc(C(F)(F)F)c1-n1cnc(Cn2nc(-c3ccc(Cl)cc3)n(C[C@H](O)C(F)(F)F)c2=O)n1)N1CCS(=O)(=O)CC1
C. CC1(NC(=O)c2ccncc2-n2nc(Cn3nc(-c4ccc(Cl)cc4)n(C[C@H](O)C(F)(F)F)c3=O)nc2C(=O)N2CCNC(=O)C2)CC1
D. O=C(c1cccc(Cl)c1-n1cnc(Cn2nc(-c3ccc(Cl)cc3)n(C[C@H](O)C(F)(F)F)c2=O)n1)N1CC2(COC2)C1
Query :: Sort (4 molecules) by IC50: min first. Give your ranking as a list of the labels in the requested order.
Result :: A, C, D, B

a. NC(=O)[C@H]1CC(F)(F)CN1C(=O)c1cccc(Cl)c1-n1cnc(Cn2nc(-c3ccc(Cl)cc3)n(C[C@@H](O)C(F)(F)F)c2=O)n1
b. O=C(NCC(F)(F)F)c1ncccc1-n1cnc(Cn2nc(-c3ccc(Cl)cc3)n(C[C@@H](O)C(F)(F)F)c2=O)n1
Query :: Hey, which is lower on measured IC50, a or b ? Please indicate the selected item by its label.
Result :: b
(b: 5.3 µM, a: 32 µM)

a. O=C(NC1CC1F)c1ncccc1-n1cnc(Cn2nc(-c3ccc(Cl)cc3)n(C[C@@H](O)C(F)(F)F)c2=O)n1 (stereo partly drawn)
b. O=C(N[C@H]1C[C@H]1F)c1ccncc1-n1nc(Cn2nc(-c3ccc(Cl)cc3)n(C[C@H](O)C(F)(F)F)c2=O)nc1C(=O)N1CCS(=O)(=O)CC1 (racemic)
c. CC1(C)CN(C(=O)c2ncccc2-n2cnc(Cn3nc(-c4ccc(Cl)cc4)n(C[C@@H](O)C(F)(F)F)c3=O)n2)CCO1
Query :: Sequence the entries by IC50, beginning with the highest number. Put the labels in the requested order and write them down.
Result :: c, a, b
(c: 32 µM, a: 5.95 µM, b: 1.1 µM)

###

- Tested system: human V2 receptor (Homo sapiens, UniProt P30518)
- Construct: expressed in transfected cells; host or cells: CHO K1 (ATCC) expressing firefly luciferase under a CRE-responsive promoter
- Assay: Cellular in vitro assay for determining vasopressin receptor activity, V2 receptor cell line (CHO, CRE-luciferase)
- Format: cell-based
- Condition summary: CHO cell line transfected with human V2 receptor; [Arg8]-vasopressin at EC50 concentration; read-out: IC50 hV2
pIC50: −log10 of the molar value.
Metric: pIC50

Example cases with answers are listed next.
Compound	Tested system	Metric	Experimental result
O=C(c1ncccc1-n1cnc(Cn2nc(-c3ccc(Cl)cc3)n(C[C@H](O)C(F)(F)F)c2=O)n1)N1CCNC(C(F)(F)F)C1 (mixture of isomers) [Example 448]	human V2 receptor (Homo sapiens, UniProt P30518)	pIC50	5.57
CC1CN(C(=O)c2ncccc2-n2cnc(Cn3nc(-c4ccc(Cl)cc4)n(C[C@@H](O)C(F)(F)F)c3=O)n2)CCO1 (stereo partly drawn) [Example 466]	human V2 receptor (Homo sapiens, UniProt P30518)	pIC50	4.18
CC1(C)COCCN1C(=O)c1ncccc1-n1cnc(Cn2nc(-c3ccc(Cl)cc3)n(C[C@H](O)C(F)(F)F)c2=O)n1 [Example 474]	human V2 receptor (Homo sapiens, UniProt P30518)	pIC50	4.65
O=C(NC1(C(F)(F)F)CC1)c1ncccc1-n1cnc(Cn2nc(-c3ccc(Cl)cc3)n(C[C@H](O)C(F)(F)F)c2=O)n1 [Example 447]	human V2 receptor (Homo sapiens, UniProt P30518)	pIC50	6.09
NC(=O)[C@@H]1CC(F)(F)CN1C(=O)c1ncccc1-n1cnc(Cn2nc(-c3ccc(Cl)cc3)n(C[C@H](O)C(F)(F)F)c2=O)n1 [Example 434]	human V2 receptor (Homo sapiens, UniProt P30518)	pIC50	5.57

1. O=C(NCC(F)(F)F)c1cc(Cl)ccc1-n1cnc(Cn2nc(-c3ccc(Cl)cc3)n(C[C@H](O)C(F)(F)F)c2=O)n1 [Example 427]
2. O=C(c1ncccc1-n1cnc(Cn2nc(-c3ccc(Cl)cc3)n(C[C@@H](O)C(F)(F)F)c2=O)n1)N1CCC(O)(C(F)(F)F)C1 (stereo partly drawn) [Example 468]
Query :: Just tell me: smaller pIC50 value, 1 or 2 ? Write down the label attached to your selection.
Result :: 2

a. O=C(N[C@H]1C[C@H]1F)c1ncccc1-n1cnc(Cn2nc(-c3ccc(Cl)cc3)n(C[C@H](O)C(F)(F)F)c2=O)n1 (racemic) [Example 456]
b. COCC1CCCN1C(=O)c1ccncc1-n1cnc(Cn2nc(-c3ccc(Cl)cc3)n(C[C@H](O)C(F)(F)F)c2=O)n1 (mixture of isomers) [Example 493]
c. O=C1CN(C(=O)c2nc(Cn3nc(-c4ccc(Cl)cc4)n(C[C@H](O)C(F)(F)F)c3=O)nn2-c2cnccc2C(=O)NC2CC2)CCN1 [Example 514]
Query :: Arrange the 3 entries by pIC50 so the values rise. Labels, requested order.
Result :: b, c, a
(b: 5.14, c: 5.90, a: 6.11)
